Measured denaturant m value of individual entries
B1: Subtilisin-chymotrypsin inhibitor-2A, P01053 (parent)
chain: MSSVEKKPEGVNTGAGDRHNLKTEWPELVGKSVEEAKKVILQDKPEAQIIVLPVGTIVTMEYRIDRVRLFVDKLDNIAQVPRVG

# Variants of: B1
# CONDITION DETAILS: Hordeum vulgare; pH 6.25; 25 °C; GdnHCl; Fluorescence; MES 50 mM; structure 2CI2; whole UniProt chain shown
A bare number is not enough; add the unit after it.

Example results:
E34A E35A    2.11 kcal/mol/M
E35D    2.2 kcal/mol/M
E34N    2.01 kcal/mol/M
S32A    1.86 kcal/mol/M
E35Q    1.84 kcal/mol/M
S32A E34A E35A    2.18 kcal/mol/M
E34Q    1.87 kcal/mol/M
S32G    2.1 kcal/mol/M
S32G E34A E35A    2.15 kcal/mol/M
E35N    2.18 kcal/mol/M

Here's the next entry for you.
IN: Fill in the blank: the reported denaturant m value of E34D is ____.
OUT: 1.83 kcal/mol/M

Origin of values: FireProtDB (doi:10.1093/protein/7.6.777)
